Provide the recorded Ki for the entries that follow.
Biological target: hSSTR2 (Homo sapiens, UniProt P30874)
Construct: host or cells: 'Cells expressing hSSTR2'
Sequence (P30874 whole entry): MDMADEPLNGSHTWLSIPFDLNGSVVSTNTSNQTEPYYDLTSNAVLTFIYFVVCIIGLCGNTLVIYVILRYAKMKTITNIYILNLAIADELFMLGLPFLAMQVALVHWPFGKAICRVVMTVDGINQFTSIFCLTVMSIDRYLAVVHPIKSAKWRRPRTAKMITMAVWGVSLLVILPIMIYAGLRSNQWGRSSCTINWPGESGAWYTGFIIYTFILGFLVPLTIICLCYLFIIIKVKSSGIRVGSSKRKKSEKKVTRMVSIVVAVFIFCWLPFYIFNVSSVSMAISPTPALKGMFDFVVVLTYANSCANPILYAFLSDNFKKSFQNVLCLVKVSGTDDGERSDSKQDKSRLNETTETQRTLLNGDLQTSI
Assay: Somatostatin receptor radioligand binding assay (hSSTR2);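 also: radioligand displacement on membranes of CHO-K1 cells stably transfected with human SSTR2, specific binding taken as total minus binding left with 1000 nM SRIF-14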
Conditions: CHO-K1 cell membranes; 0.05 nM [125I-Tyr]-seglitide; 60 minutes at 25°C; read-out: hSSTR2 Ki (nM) ± SEM
Bridge positions count the residues as written; N and C are the ends. Square brackets hold non-standard residues; d marks the D form. Peptide text beside a SMILES is read from it. * marks the point of attachment. X2 = CN1C[C@H](CSCC(=O)*)C[C@@H]2c3cccc4[nH]cc(c34)C[C@H]21; 4Pal = N[C@@H](Cc1ccncc1)C(=O)O
Quick note: number first, unit second.

QUERY: // Input: C[C@@H](O)[C@@H]1NC(=O)[C@H](CCCCN)NC(=O)[C@@H](Cc2c[nH]c3ccccc23)NC(=O)[C@H](Cc2ccncc2)NC(=O)[C@H](Cc2ccccc2)NC(=O)[C@H](CCCNC(=N)N)NC(=O)[C@H](NC[C@H](CCCCNC(=O)CSC[C@@H]2C[C@@H]3c4cccc5[nH]cc(c45)C[C@H]3N(C)C2)NC(=O)CSC[C@@H]2C[C@@H]3c4cccc5[nH]cc(c45)C[C@H]3N(C)C2)CCCCNC(=O)[C@H](Cc2ccc(O)cc2)NC1=O . Output its Ki only.
RESULT: 0.21 nM

QUERY: Look up and report measured Ki for this entry: C[C@@H](O)[C@@H]1NC(=O)[C@H](CCCCN)NC(=O)[C@@H](Cc2c[nH]c3ccccc23)NC(=O)[C@H](Cc2ccccc2)NC(=O)[C@H](Cc2ccccc2)NC(=O)[C@H](CCCNC(=N)N)NC(=O)[C@H](NC[C@H](CCCCNC(=O)CSC[C@@H]2C[C@@H]3c4cccc5[nH]cc(c45)C[C@H]3N(C)C2)NC(=O)CSC[C@@H]2C[C@@H]3c4cccc5[nH]cc(c45)C[C@H]3N(C)C2)CCCCNC(=O)[C@H](Cc2ccc(F)cc2)NC1=O
RESULT: 0.58 nM

QUERY: Supply measured Ki of C[C@@H](O)[C@@H]1NC(=O)[C@H](CCCCN)NC(=O)[C@@H](Cc2c[nH]c3ccccc23)NC(=O)[C@H](Cc2ccncc2)NC(=O)[C@H](Cc2ccccc2)NC(=O)[C@H](CCCNC(=N)N)NC(=O)[C@H](NC[C@H](Cc2ccc(O)cc2)NC(=O)CSC[C@@H]2C[C@@H]3c4cccc5[nH]cc(c45)C[C@H]3N(C)C2)CCCCNC(=O)[C@H](Cc2ccccc2)NC1=O in your reply.
RESULT: 0.12 nM

QUERY: Note down Ki recorded for C[C@@H](O)[C@@H]1NC(=O)[C@H](CCCCN)NC(=O)[C@@H](Cc2c[nH]c3ccccc23)NC(=O)[C@H](Cc2ccncc2)NC(=O)[C@H](Cc2ccccc2)NC(=O)[C@H](CCCNC(=N)N)NC(=O)[C@H](NC(=O)CSC[C@@H]2C[C@@H]3c4cccc5[nH]cc(c45)C[C@H]3N(C)C2)CCCCNC(=O)[C@H](Cc2ccccc2)NC1=O [Compound 24] (X2-[dK]RF[4Pal][dW]KTF; lactam 1-C)
RESULT: 0.08 nM

###

Biological target: hSSTR2 (Homo sapiens, UniProt P30874)
Construct: host or cells: 'Cells expressing hSSTR2'
Experiment: Intracellular calcium mobilization assay (FLIPR Calcium 4), hSSTR2;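 also: agonist activity measured in cells expressing hSSTR2, seeded in 384-well plates, loaded with Calcium 4 dye, read-out as rise in intracellular calcium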
Format: cell-based
pEC50: −log10 of the molar value. Numbered stars: 1 amine (or outer) side, 2 acyl side, 3 side chain; on linkers, the order of the positions; unused ones are H or OH. Bridge positions count the residues as written; N and C are the ends. Square brackets hold non-standard residues; d marks the D form. Peptide text beside a SMILES is read from it. X1 = CN1C[C@H](CSCCN(CCSC[C@@H]2C[C@@H]3c4cccc5[nH]cc(c45)C[C@H]3N(C)C2)[C@H](CCCCN[*:2])C(=O)[*:1])C[C@@H]2c3cccc4[nH]cc(c34)C[C@H]21; Phe(4-F) = N[C@@H](Cc1ccc(F)cc1)C(=O)O
Quick rule for you: pEC50 at 8 or higher means 1 (yes), lower means 0 (no).

QUERY: Test whether the compound C[C@@H](O)[C@@H]1NC(=O)[C@H](CCCCN)NC(=O)[C@@H](Cc2c[nH]c3ccccc23)NC(=O)[C@H](Cc2ccncc2)NC(=O)[C@H](Cc2ccccc2)NC(=O)[C@H](CCCNC(=N)N)NC(=O)[C@H](NCCSC[C@@H]2C[C@@H]3c4cccc5[nH]cc(c45)C[C@H]3N(C)C2)CCCCNC(=O)[C@H](Cc2ccccc2)NC1=O [Compound 23] records pEC50 of 8 or higher.
RESULT: 1 (yes)

QUERY: pEC50 >= 8 for C[C@@H](O)[C@@H]1NC(=O)[C@H](CCCCN)NC(=O)[C@@H](Cc2c[nH]c3ccccc23)NC(=O)[C@H](Cc2ccccc2)NC(=O)[C@H](Cc2ccccc2)NC(=O)[C@H](CCCNC(=N)N)NC(=O)[C@H](N(CCSC[C@@H]2C[C@@H]3c4cccc5[nH]cc(c45)C[C@H]3N(C)C2)CCSC[C@@H]2C[C@@H]3c4cccc5[nH]cc(c45)C[C@H]3N(C)C2)CCCCNC(=O)[C@H](Cc2ccccc2)NC1=O [Compound 40] (RFF[dW]KTF; linker N-C via X1) ?
RESULT: 0 (no)

QUERY: # check: pEC50 of C[C@@H](O)[C@@H]1NC(=O)[C@H](CCCCN)NC(=O)[C@@H](Cc2c[nH]c3ccccc23)NC(=O)[C@H](Cc2ccccc2)NC(=O)[C@H](Cc2ccccc2)NC(=O)[C@H](CCCNC(=N)N)NC(=O)[C@H](NCCS(=O)(=O)C[C@@H]2C[C@@H]3c4cccc5[nH]cc(c45)C[C@H]3N(C)C2)CCCCNC(=O)[C@H](Cc2ccc(F)cc2)NC1=O [Compound 10] is greater than or equal to 8
RESULT: 0 (no)

QUERY: In plain terms: is recorded pEC50 at least 8 for C[C@@H](O)[C@@H]1NC(=O)[C@H](CCCCN)NC(=O)[C@@H](Cc2c[nH]c3ccccc23)NC(=O)[C@H](Cc2ccccc2)NC(=O)[C@H](Cc2ccccc2)NC(=O)[C@H](CCCNC(=N)N)NC(=O)[C@H](N(CCSC[C@@H]2C[C@@H]3c4cccc5[nH]cc(c45)C[C@H]3N(C)C2)CCSC[C@@H]2C[C@@H]3c4cccc5[nH]cc(c45)C[C@H]3N(C)C2)CCCCNC(=O)[C@H](Cc2ccc(F)cc2)NC1=O [Compound 39] (RFF[dW]KT[Phe(4-F)]; linker N-C via X1) ?
RESULT: 0 (no)

QUERY: Threshold query (pEC50 >= 8) on C[C@@H](O)[C@@H]1NC(=O)[C@H](CCCCN)NC(=O)[C@@H](Cc2c[nH]c3ccccc23)NC(=O)[C@H](Cc2ccccc2)NC(=O)[C@H](Cc2ccccc2)NC(=O)[C@H](CCCNC(=N)N)NC(=O)[C@H](NCC[S+]([O-])C[C@@H]2C[C@@H]3c4cccc5[nH]cc(c45)C[C@H]3N(C)C2)CCCCNC(=O)[C@H](Cc2ccc(F)cc2)NC1=O (stereo partly shown) [Compound 14]
RESULT: 1 (yes)

QUERY: Does the compound C[C@@H](O)[C@@H]1NC(=O)[C@H](CCCCN)NC(=O)[C@@H](Cc2c[nH]c3ccccc23)NC(=O)[C@H](Cc2ccccc2)NC(=O)[C@H](Cc2ccccc2)NC(=O)[C@H](CCCNC(=N)N)NC(=O)[C@H](NCCCC[C@@H]2C[C@@H]3c4cccc5[nH]cc(c45)C[C@H]3N(C)C2)CCCCNC(=O)[C@H](Cc2ccc(F)cc2)NC1=O [Compound 2] have recorded pEC50 that is 8 or more?
RESULT: 0 (no)
